Each entry below carries its reported hPD-1 blockade assay IC50.
Biological target: full-length human PD-1 expressed on cells (human, UniProt Q15116 25-288)
Sequence (Q15116 25-288 limits assumed): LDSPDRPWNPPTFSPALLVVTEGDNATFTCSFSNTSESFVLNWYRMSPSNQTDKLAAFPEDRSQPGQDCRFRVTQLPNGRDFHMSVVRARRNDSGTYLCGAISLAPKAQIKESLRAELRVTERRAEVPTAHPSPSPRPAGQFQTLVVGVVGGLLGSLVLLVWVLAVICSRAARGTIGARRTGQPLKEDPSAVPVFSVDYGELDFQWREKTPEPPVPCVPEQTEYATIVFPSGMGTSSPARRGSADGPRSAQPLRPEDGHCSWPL
Assay: cell-based or functional assay
Response body: numeric value in µg/mL, unit text excluded.

For MAB-19-0202 (antibody, V domains shown, Chimeric rabbit/human antibody: rabbit variable regions cloned N-terminal of human IgG1 / kappa constant parts with L234A and L235A (LALA)) VH: QSVEESGGRLVTPGTPLTLTCTVSGFSLYSYNMGWVRQAPGKGLEYIGIISGGTIGHYASWAKGRFTISKTSSTTVDLKMTSLTTEDTATYFCARAFYDDYDYNVWGPGTLVTVSS VL: AAVLTQTPSPVSAAVGGTVTISCQSSQSVYGNNQLSWYQQKPGQPPKLLIYQASKLETGVPSRFKGSGSGTQFTLTISDLESDDAATYYCAGGYSSSSDTTFGGGTEVVVK the binder record lists hPD-1 blockade assay IC50 as 0.056

For MAB-19-0608 (antibody, IgG1, V domains shown, Recombinant humanized hIgG1-LALA antibody) VH: QVQLVESGGGLVQPGTSLRLSCSVSGFSLYSYNMGWVRQAPGKGLEYIGIISGGTIGHYASWAKGRFTISRDTSKTTLYLQMNSLTTEDTATYFCARAFYDDYDYNVWGPGTLVTVSS VL: DIQMTQSPSTLSASVGDRVTITCQSSQSVYGNNQLSWYQQKPGKAPKLLIYQASKLETGVPSRFSGSGSGTQFTLTISSLQPDDFASYYCAGGYSSSSDTTFGQGTKVEIK the binder record lists hPD-1 blockade assay IC50 as 0.063

# credit: patent US20230399403A1
